# test: ATPase activity at 0.05 ppm enzyme on 0.1 mM ATP (absorbance 620 nm)
# Format: biochemical
# conditions.used: 50 mM IVIES buffer pH 6
measured.endpoint: Activity on ATP (absorbance at 620 nm, blank subtracted), pH 6.0

molecule | result
CRC25085: Acid phosphatase (Class A), accession WP_092747651.1, SEQ ID NO:21 (protein, listed as Acinetobacter boissieri) LEQSNSFLQLAQVPDSLAIVPAPPAYNSVDFLRDKAAYDQAKSLVGTERWKVAAEDADLSDANIGKPFSQALGIEISPQNTPITYEILRKLRTDAGNYATKAAKEHYMRLRPFMFFNSHTCTPNDEANLSKNGAYPSGHTTIGWSSALVLAEIRPERQNEILQRGYEYGQSRVICGVHWQSDVDAGRITGSAIVARLHADKAFTKMLEEAKQEIQRKTK | 0.20
CRC25099: Acid phosphatase (Class A), accession WP_195761705.1, SEQ ID NO:23 (protein, listed as Pantoea sp.) LQSSGFLTAETAPDSLAILPPPPAENSVTFQSDKAQYEAGHVLRNVARTELASKDADYKNFGQAFSAAFGMEISESHTPVLYHLLSEVLQDSHDFAMRGAKDHYKRVRPFVIYKDSTCTPDKDKSMSTTGSYPSGHASFGWAAALILAEINPSRETEIIRRGYDFGESRVVCGAHWQSDVENGRIMGATVVASLHANAKFAELLSQAKNEFATLSAQDSK | 0.93
CRC21323: Acid phosphatase (Class A), accession WP_054306375.1, SEQ ID NO:18 (predicted mature), SEQ ID NO:2 (protein, listed as Serratia rubidaea) AQTPGFLTPETAPDSLQILPPPPAENTTAFLNDKAAYETGKTLKDAQRQALAASDADYKNISAAFSAAFGEEISPEKTPALYALLQGVLQDSHDYAMRAAKDHYMRVRPFVVYKDSTCTPEKDKSMAKTGSYPSGHASFGWATALVLTEINPARETEILKRGYDFGQSRVVCGAHWQSDVDNGRLMGAAVVAALHGNQGFNDALAKAKAEFAKR | 0.10
CRC25089: Acid phosphatase (Class A), accession WP_217352265.1, SEQ ID NO:22 (protein, listed as Paraburkholderia bonniea) AGSDGFLTAETAPSSLAILPPPPAENTVAFLNDKANYEIGRSLKNDARVALAASDANCKNINAIFSSAFGREISEEKTPKLYRLLLGVLQDSHDHAMKSAKNHYMRVRPFVMYGDKTCTPEEDNKMKNTGSYPSGHASFGWAAALVLSEINPERTTEILRRGYDFGQSRVVCGAHWQSDVDNGRLMGAAVVADLHNNDKFIKALEAAKAEFKENTPGN | 0.05
CRC25082: Acid phosphatase (Class A), accession WP_050460978.1, SEQ ID NO:19 (protein, listed as Herbaspirillum autotrophicum) KGAAGFLNGQTAPDSLAILPPPPAEDSVAFQADKAQYETGHVLRDPERVEQARQDADYRNFGHAFSAAFGMEISATHTPVLYQLLTEVLQDSHDYAMKAAKNHYKRVRPFVVYKDPTCTPGQDEKMALSGSYPSGHASFGWAAALVLAEINPARQTEILQRGYAFGKSRVICGAHWQSDVDNGQLMGAAVVAALHSNSQFAAALNAAKNEFAGLRAQDNKK | 0.65
CRC25084: Acid phosphatase (Class A), accession WP_088823167.1, SEQ ID NO:20 (protein, listed as Acinetobacter apis) ADSNNSFLQLNQVPDSLKIVPAPPAFNSVDFLRDKAAYDQARSLVGTARWQQAAVDADLSDANIGKSFSEAFGVEISPTNTPVTYEILRKLRTDAGGYATKTAKEHYMRMRPFVFFNSHTCTPNDEASLSKNGAYPSGHTTIGWSSALILAEIRPDRQNEILERGYQYGQSRVICGVHWQSDVDAGRITGSAIVARLHADKDFAKTLEDAKREIQKKIK | 0.17
CRC21322: Acid phosphatase (Class A), accession AEG96708.1, SEQ ID NO:17 (protein, Klebsiella aerogenes) KENKGFLNADTSPDSLAILPPPPTENSVAFLQDKADYETGRVLKNKERTELAAKDANYKNFGQAFSEAFGMVISAERTPVLYLLLSEVLQDSHDYAMRSAKDHYMRVRPFVLYKNPTCTPEKDDKMAKTGSYPSGHASFGWAAALVLAEINPARETEILKRGMDFGESRVVCGAHWQSDVDSGRIMGAAVVAALHANPRFANTLSEAKKEFAALSAKSE | 0.07
CRC25100: Acid phosphatase (Class A), internal database, SEQ ID NO:24 (protein, environmental sample) GENSGFLSPETSPNSLEILPPPPSEGSIAFLNDKANYDIGHTLKNEGRLAQAVSDANYKNLTDAFSKAFGETISEQNTPALYSLLQNVLQDSHDFAMRAAKDHYKRVRPFVIYKDHTCTPAEDTKMAKTGSYPSGHASFGWATALVLSEINPARETEILKRGYEFGQSRVICGAHWQSDVDSGRIMGAAVVASLHNNSDFISALAKAKEEFRKK | 0.90
